Ref: PubChem BioAssay

# maps each entry to its viability
METHOD: growth suppression of beta-catenin knockout HCT116, pilot screen, human colon tumor cells (AID 823);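 further: 0% = wells killed by 20 µM Hyamine and 100% = untreated DMSO cell wells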
ASSAY_SETUP: CellTiter-Glo, 60 h, at 10 µM, stronger effect = lower value
Results filed as inconclusive are left out.
# unit: % | format: bare number

The examples below pair each entry with its known result.
MOLECULE | UNITS_TEXT | viability
Cc1ccc(CC2S/C(=C(/C#N)C(=O)NCc3ccco3)N(c3ccccc3)C2=O)cc1 (stereo not given) | % | 45
Cn1cccc1Cc1nnc(SCC(=O)NC2CCCCC2)n1CCc1ccccc1 | % | 79.6
c1ccc(-c2csc3ncn4cnnc4c23)cc1 | % | 97.8

Look up viability for this molecule: `Cc1cc2cc(CNC(=O)c3ccc(Br)o3)ccc2n1C`
94.2

Query `COc1ccc(-c2nc(N3CCOCC3)nc3n[nH]c(N)c23)cc1` next
74.7

---

# maps each entry to its growth inhibition
METHOD: Restrictive medium S. cerevisiae growth inhibition, OD615, pilot screen of yeast lifespan reduction project, restrictive growth control (AID 706);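 further: modified DeaD lifespan yeast strain shifted to restrictive glucose medium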
ASSAY_SETUP: OD615, 48 h, at 10 µM, stronger effect = higher value
# unit: % | format: bare number

COMPOUND | growth inhibition [%]
Cn1c(=O)c2c(nc(NCc3ccccc3)n2C)n(C)c1=O | -2.69
CCn1cc(C(=O)N2CCN(c3ccccn3)CC2)c2cc(OC)c(OC)cc2c1=O | -7.93
O=C(Nc1c(C(=O)N2CCCCC2)cnn1-c1ccccc1)c1ccccc1 | -4.25
CSCCC1(C(=O)O)NC(c2ccccc2O)C2C(=O)N(C(C)C)C(=O)C21 (stereo not given) | 11.6

Look up growth inhibition for this compound: `COC(=O)c1cc(OC)c(OC)cc1N=CC1=C(O)CC(C)(C)CC1=O`
-8.12

---

METHOD: Restrictive medium S. cerevisiae growth inhibition, OD615, pilot screen of yeast lifespan reduction project, restrictive growth control (AID 706);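 further: modified DeaD lifespan yeast strain shifted to restrictive glucose medium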
ASSAY_SETUP: OD615, 48 h, at 10 µM, stronger effect = higher value
# maps each entry to its growth inhibition
# unit: % | format: bare number

COMPOUND | growth inhibition [%]
COc1ccc(OC)c(S(=O)(=O)N2CCCCC2C(=O)N2CCN(c3ccccn3)CC2)c1 (stereo unspecified) | -0.22

Look up growth inhibition for this compound: `CCN(CC)CCCNC(=O)c1cc(-c2ccc(O)cc2)on1`
9.75

Query `CC1(C)Cc2c(c(=S)nc(-c3ccccc3)n2CCOCCO)CO1` next
19.6

Query CCOC(=O)C1CCN(C(=O)c2ccc(NC(=O)C3CCCO3)cc2)CC1 (stereo unspecified) next
-7.09

Query `COC(=O)C1=C(C)N(C)C(C)=C(C(=O)OC)C1c1ccsc1` next
-6.81

Query `C=CCSC1=N/C(=C\c2ccc3c(c2)OCO3)C(=O)S1` next
-9.09

Query COc1ccccc1C(=O)C(O)c1ccccc1OC (stereo unspecified) next
0.335

Query `COc1ccc(-c2cc(NCCc3ccncc3)n3ncnc3n2)cc1` next
14.2

---

# maps each entry to its inhibition
METHOD: inhibitors of the yeast RAM network, pilot screen, dse1pr::URA3 reporter, 5-FOA selection (AID 869);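 further: 0% = DMSO wells with no growth and 100% = 10 µM 1-NA-PP1 with full growth; RAM network block rescues cells from 5-FOA so hits raise OD615 growth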
ASSAY_SETUP: S. cerevisiae dse1pr::URA3 5-FOA growth, OD615, 2 d; at 10 µM; stronger effect = higher value; strain carries analog-sensitive mutant Cbk1 kinase
# unit: % | format: bare number

Look up inhibition for this compound: Clc1ccc(C2CC(c3cccs3)n3ncnc3N2)c(Cl)c1 (centres undefined)
2.1

Query `CCOC(=O)c1c(NC(=O)c2ccc(Cl)s2)sc(C)c1C` next
2.4

Query `Cc1c(C(=O)NCc2ccccc2)oc2ccc(S(=O)(=O)N3CCC4(CC3)OCCO4)cc12` next
3.6

Query `Fc1ccc(CSc2nnc(-c3cccnc3)n2Cc2ccco2)cc1` next
1.94

Query `COc1ccccc1-c1nc(NC(C)=O)n[nH]1` next
3.42

---

METHOD: 384-well plate pilot, post-Golgi transport modulator project, inhibition of yeast transport mutant growth (AID 636)
ASSAY_SETUP: absorbance 615 nm, about 18 h, stronger effect = higher value
The source made the active and inactive calls. Cut-off read from the data, not from the text of the source: active = inhibition above about 31%; inactive = the rest.
EXPERIMENTAL_ENDPOINT: inhibition

The examples below pair each entry with its known result.
COMPOUND | inhibition
CCOC(=O)N1CCN(C(=O)CSCC(=O)Nc2nc(-c3ccc(OC)cc3)cs2)CC1 | -1.3% (inactive)
c1ccc(-c2nnc(CN3CCC4(CC3)OCCO4)o2)cc1 | -0.79% (inactive)
O=C(O)CCCCCNc1nc(=S)[nH]c2ccccc12 | -5.92% (inactive)
Cc1cc(C)n2nc(SCc3cc(=O)n4ccccc4n3)nc2n1 | -4.47% (inactive)
CCOC(=O)C(NC(=O)Nc1ccccc1)(OCC)C(F)(F)F (stereo unspecified) | -0.26% (inactive)
CN(C)S(=O)(=O)Nc1ccc(Br)cc1F | -5.2% (inactive)
CCn1c(SC)nc2c(c1=O)SC(C)C2 (stereo unspecified) | -4.67% (inactive)
CS(=O)(=O)Nc1ccc(C(=O)NCCc2ccccc2)cc1 | -3.47% (inactive)
COc1ccc(OC)c(Nc2cc(-c3ccccc3)nc(N)n2)c1 | -5.92% (inactive)
CS(=O)(=O)N1CCN(c2ccccc2NC(=O)c2ccc(-c3ccc(Cl)cc3Cl)o2)CC1 | -2.93% (inactive)

# context switch: different compound, same inhibition
Look up inhibition for this compound: `CCCCS(=O)(=O)NC1=NCN(C2CCN(Cc3ccccc3)CC2)CN1`
-2.7% (inactive)

---

# maps each entry to its differential viability (reversal)
METHOD: reversal of MRP1-mediated doxorubicin resistance, pilot screen, H69AR cells, doxorubicin co-treatment (AID 601)
ASSAY_SETUP: H69AR cells + 2 uM doxorubicin, CellTiter-Glo, 72 h; at 10 µM; stronger effect = higher value
# unit: % | format: bare number

COMPOUND | UNITS_TEXT | differential viability (reversal)
c1ccc(-c2noc(C34CC5CC(CC(C5)C3)C4)n2)nc1 | % | 17.3

Look up differential viability (reversal) for this compound: `Cc1ccc2ncnc(NCCCN3CCOCC3)c2c1`
-0.115

Query CC(C)C(NC(=O)c1ccccc1NC(=O)c1ccco1)C(=O)O (stereo not drawn) next
2.44

Query `Cc1ccccc1-c1nc(CN2CCC(C(=O)NCc3cccnc3)CC2)c(C)o1` next
0.825

Query `COc1ccc(-c2noc(-c3ccccc3C(=O)NCc3ccco3)n2)cc1` next
-12.1

Query `Cc1nc2c3cnn(-c4ccccc4)c3ncn2n1` next
14.2

Query `O=C(NCCC1=CCCCC1)C1CCN(C(=O)Nc2ccccc2)CC1` next
5.69

Query `O=C(CN1C(=O)CCSc2ccccc21)Nc1ccccc1` next
15.9

Query `Cc1ccc(C)c(N2CCN(C(=O)c3ccc(CS(=O)(=O)c4ccccc4C)o3)CC2)c1` next
-39.1

Query `COc1ccc2c(c1)Sc1ccccc1N2CCN(C)C` next
-3.43

Query CCC1CCCN1Cn1cnc2c([nH]c3ccc(OC)cc32)c1=O (stereo not drawn) next
1.38

Query `CCOc1ccc(Cl)cc1S(=O)(=O)N1CCCC1` next
-5.74

Query `O=C(CN1C(=O)c2ccccc2S1(=O)=O)NCc1ccccn1` next
0.67

Query COCCn1nnnc1C(c1cccs1)N1CCN(c2cc(C)ccc2C)CC1 (stereo not drawn) next
2.44

Query `O=[n+]1c2c(n([O-])c3cc(F)c(N4CCCC4)cc31)CCC2` next
5.59

Query `CC(C)(C)Nc1nc(NC(C)(C)C)nc(-n2ccnc2)n1` next
1.06

Query CCOC(=O)C(NC(C)=O)(Nc1ccc(S(=O)(=O)Nc2nccs2)cc1)C(F)(F)F (stereo not drawn) next
3.07

Query NC1=NC(c2ccc(Cl)cc2)n2c(nc3ccccc32)N1 (stereo not drawn) next
-10.8

Query `O=C(O)c1cc(=O)c2c(OCC(O)COc3cccc4oc(C(=O)O)cc(=O)c34)cccc2o1` next
14.7

Query `Cn1c(=O)c2c(nc(CN3CCCCC3)n2CCc2ccccc2)n(C)c1=O` next
-1.94

---

METHOD: Restrictive medium S. cerevisiae growth inhibition, OD615, pilot screen of yeast lifespan reduction project, restrictive growth control (AID 706);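 further: modified DeaD lifespan yeast strain shifted to restrictive glucose medium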
ASSAY_SETUP: OD615, 48 h, at 10 µM, stronger effect = higher value
EXPERIMENTAL_ENDPOINT: growth inhibition (%)
# unit: % | format: bare number

COMPOUND | growth inhibition (%)
Cc1ccc(C)c2c1sc(=NC(=O)CN1C(=O)CCC1=O)n2C | -2.54

Look up growth inhibition for this compound: `Cc1nc2ccccc2c2oc(C(=O)N3CCN(C4CCCCC4)CC3)cc12`
8.38

Query `COc1ccc(OC)c(Nc2cc(C)nc3nc(C)nn23)c1` next
-0.375

Query `O=C(c1cnn2ccccc12)N(Cc1ccco1)C1CCCC1` next
-4.11

---

METHOD: reducers of endogenous Her2 protein level, primary screen, SKBR3 breast tumor cells, AlphaScreen, ATP viability (AID 461);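 further: percent of carrier control wells set as 100% viability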
ASSAY_SETUP: 18-24 h, measured here: SKBR3 viability, ATP luminescence, at 10 µM
# maps each entry to its viability
# unit: % | format: bare number

COMPOUND | viability / %
Cc1cccc(C)c1NC(=O)CC(NCc1ccco1)C(=O)O (stereo unspecified) | 116
CCOC(=O)N1CCN(C(=O)CCc2c(C)nc3c(c(C)nn3-c3ccc(C)c(C)c3)c2C)CC1 | 92
O=C1CC(c2cccs2)CC2=C1C(c1ccccc1)n1ncnc1N2 (stereo unspecified) | 105
CCCC(=O)N1c2ccccc2NC2=C(C(=O)CCC2)C1c1ccc(F)cc1 (stereo unspecified) | 98.5
Cc1ccc(-c2csc3ncn(-n4c(C)ccc4C)c(=O)c23)o1 | 96
CC(Oc1ccc(Br)cc1)C(=O)N1CCc2ccccc21 (stereo unspecified) | 85.5
CC(C)Nc1ncnc2c1cnn2-c1ccccc1 | 95.5
c1cncc(-c2nnc3sc(-c4ccco4)nn23)c1 | 118
CCCn1c(-c2ccc(F)cc2)cnc1SCC(=O)O | 128
COc1ccc(OC)c(S(=O)(=O)NCCC2=CCCCC2)c1 | 77

# context switch: different compound, same viability
Look up viability for this compound: `CCOC(=O)c1ccc(-n2c(=O)[nH]c3ccccc3c2=O)cc1`
102
